# credit: patent US20210380703A1

Target: T1, human ACVR2A (human, UniProt P27037 20-135, limits assumed); also: test concentration or dose not given here
T1 construct: coated antigen of the initial ELISA; also called activin receptor, type II A
T1 sequence (P27037 20-135 limits assumed): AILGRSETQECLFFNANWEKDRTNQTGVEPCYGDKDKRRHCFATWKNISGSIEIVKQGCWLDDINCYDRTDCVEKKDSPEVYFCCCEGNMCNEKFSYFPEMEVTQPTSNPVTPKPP
Assay: ELISA
Can you tell me optical density for the items I'm about to list?
Express the reported value numerically, then name its unit.

## Task Request the reported optical density associated with 369_C05 (antibody, V domains shown, Group III) VH: EVQLLESGGGLVQPGGSLRLSCAASGFTFDSYSMNWVRQAPGKGLEWVAGINYNGGYTSYADSVKGRFTISRDNSKNTLYLQMNSLRAEDTAVYYCARGANWHDTALDYWGQGTLVTVSS VL: DIQMTQSPSSLSASVGDRVTITCRASQSISSYVNWYQQKPGKAPKLVIYATTSRHSGVPSRFSGSGSGTDFTLTISSLQPEDFATYYCQQSYNSPLTFGGGTKVEIK
## Result 2.54 OD

## Task Quick one: optical density of 370_D01 (antibody, V domains shown, Group III) VH: EVQLLESGGGLVQPGGSLRLSCAASGFTFSSYSMNWVRQAPGKGLEWVSSINYNGGYTGYADSVKGRFTISRDNSKNTLYLQMNSLRAEDTAVYYCARGANWHDTALDYWGQGTLVTVSS VL: DIQMTQSPSSLSASVGDRVTITCRASQSILSYLNWYQQKPGKAPKLLIYAATSRHSGVPSRFSGSGSGTDFTLTISSLQPEDFATYYCQQSYNTPLTFGGGTKVEIK ?
## Result 3.14 OD
